# System: VchCAST RNA-guided transposition machinery (E. coli BL21(DE3) host, lacZ target)
# procedureDetails: relative integration efficiency (T-RL orientation) vs wild-type transposon end (log2 (normalized fold change)); transposon end mutated: right end (5 bp flank + 75 bp right end); higher = more efficient transposition
Lab note: compare relative integration efficiency (log2) against -5. Equal or greater, write Yes. Smaller, write No.

Prompt: Can ACATTTGTTGATACAACCATAAAAGTCGCCGGCACAAACGCCCGGTCGCCGGCGACACAAACGCCCGGTCGCGGTAAGAGGATCATAGTCAGACCAACATTGCTACGACCCGTATTCGCACCGACAC be said to have relative integration efficiency (log2) at or above -5?
Completion: No

Prompt: Can ACATTTGTTGATCAAACCATAAAATGATAATTACACCCATAAATTGATAATTATCACACCCATAAATTGATATTGCCTCTGATCATAGTCAGACCAACATTGCTACGACCCGTATTCGCACCGACAC be said to have relative integration efficiency (log2) at or above -5?
Completion: Yes

Prompt: Can ACATTTGTCGATCCAACCATAAAATGATAATTACACCCATAAATGGATCATTATCACACCCAATTTAACTATAACGCTCTGATCATAGTCAGACCAACATTGCTACGACCCGTATTCGCACCGACAC be said to have relative integration efficiency (log2) at or above -5?
Completion: Yes

Prompt: Can ACATTTGTAGATAAAACCATACGTTGATTTTACGAAACCATACGCTGAAATAATCACACCCATAAATTGATATTGCCTCTGATCATAGTCAGACCAACATTGCTACGACCCGTATTCGCACCGACAC be said to have relative integration efficiency (log2) at or above -5?
Completion: No

Prompt: Can ACATTGGTTGATACAACCATAAAATGATAATTACACCCATAAATTGATCATTATCACACCCAATTTAACTATAACGCTCTGATCATAGTCAGACCAACATTGCTACGACCCGTATTCGCACCGACAC be said to have relative integration efficiency (log2) at or above -5?
Completion: No

* * *

# Tested on: VchCAST RNA-guided transposition machinery (E. coli BL21(DE3) host, lacZ target)
# procedureDetails: relative integration efficiency (T-LR orientation) vs wild-type transposon end (log2 (normalized fold change)); transposon end mutated: left end; higher = more efficient transposition
Lab note: compare relative integration efficiency (log2) against -1. Equal or greater, write true (1). Smaller, write false (0).

Prompt: Can AATGTTGTTGATGTAATTATCATTTTATGGTTGATAATTATTTATAATCAGCAACTTAACCACAAAACAACCATAAAATGATAATTATTTTGTCAACCATAAAATGATAATTATGTGAATCGAGTATTTCAGCAAAACTACTGCAGTAAGAA be said to have relative integration efficiency (log2) at or above -1?
Completion: false (0)

Prompt: Can AATGTTGTTGATGCAACCATAAAGTGATATTTAATAATTATTTATAATCAGCAACTTAACCACAAAACAACCATATATTGATATCTCACAAAACAACCATAAGTTGATAGGGGGTGTCCGATCTGATTTCAGCAAAACTACTGCAGTAAGAA be said to have relative integration efficiency (log2) at or above -1?
Completion: true (1)

Prompt: Can AATGTTGTTGATGCAACCATAAAGTGATATTTAATAATTATTTATAATCAGCAACTTAACCACAAAACAACCATATATTGATATCTCACAAAACAACCATAAGTTGATATGTGAATCGAGTATTTCAGCAAAACTACTGCAGTAAGAAAGTT be said to have relative integration efficiency (log2) at or above -1?
Completion: true (1)

Prompt: Can AATGTTGTTGATGCAACCATAAAGTGATATTTAATAATTATTTATAATCAGCAACTTAACCACAAAACACAACGCGCGGTCGCGAGACACCCCACCAACGCCTGGTCGCGGGGGTGTCCGATCTGATTTCAGCAAAACTACTGCAGTAAGAA be said to have relative integration efficiency (log2) at or above -1?
Completion: false (0)

Prompt: Can AATGTTGTTGATGCAACCATACCTGTATATTTAATAATTATTTATAATCAGCAACTTAACCACAAAACAACCATAGCGGTATATCTCACAAAACAACCATACTGGTATATTTTTGTGAATCGAGTATTTCAGCAAAACTACTGCAGTAAGAA be said to have relative integration efficiency (log2) at or above -1?
Completion: false (0)

Prompt: Can AATGTTGTTGATGCAACCATAAAGTGATATTTACAACCATATATTGATATCTCATAATTATTTATAATCAGCAACTTAACCACAAAAACAAAACAACCATAAGTTGATATTTTTGTGAATCGAGTATTTCAGCAAAACTACTGCAGTAAGAA be said to have relative integration efficiency (log2) at or above -1?
Completion: true (1)

Prompt: Can AATGTTGTTGATGCAACCATAAAATGATAATTAATAATTATTTATAATCAGCAACTTAACCACAAAATAATTATCATTTTATGGTTGACAAAATAATTATCATTTTATGGTTGTGTGAATCGAGTATTTCAGCAAAACTACTGCAGTAAGAA be said to have relative integration efficiency (log2) at or above -1?
Completion: true (1)

Prompt: Can AATGTTGTTGATGCAACCATATATTGATATCTCATAATTATTTATAATCAGCAACTTAACCACAAAACAACCATAAAATGATAATTAACAAAAGTTGGTATTCAACTATAAAATGTGAATCGAGTATTTCAGCAAAACTACTGCAGTAAGAA be said to have relative integration efficiency (log2) at or above -1?
Completion: false (0)

Prompt: Can AATGTTGTTGATGCACCCATAAATTGATAATTAATAATTATTTATAATCAGCAACTTAACCACAAAACAACCATAAGTTGATATTTTACAAAAGTTGGTATTCAACTATAAAATGTGAATCGAGTATTTCAGCAAAACTACTGCAGTAAGAA be said to have relative integration efficiency (log2) at or above -1?
Completion: false (0)
